# Assay name: 24-hour pharmacokinetic study, intravenous route
# Assay type: in vivo, male Sprague Dawley rats
# Experimental setup: male, Sprague Dawley, rat, plasma, intravenous, 20 mg/kg, 20 mg/kg IV, 1 hour (60 minutes) post-dose, individual rats #1-#3; read-out: Plasma SOC-1
Reported metric: concentration at 1 h

Measured concentration at 1 h, Cl.Cn1ncc2c1Nc1ccccc1NC2 [SOC-1] : 5720 ng/mL

---

# Assay name: Pharmacokinetics after IP and PO administration
# Format: in vivo, Hooded Wistar rats
# Experimental setup: Hooded Wistar, rat, plasma, po, 5 mg/kg
Reported metric: Tmax (min)
# value in min; strip the unit string

Noted for Cl.Cn1ncc2c1Nc1ccccc1NC2 [SOC-1] : its Tmax reads 26.1

---

# Assay name: 24-hour pharmacokinetic study, intravenous route
# Assay type: in vivo, male Sprague Dawley rats
# Experimental setup: male, Sprague Dawley, rat, plasma, intravenous, 20 mg/kg, 20 mg/kg IV, 5 minutes post-dose, individual rats #1-#3; read-out: Plasma SOC-1
Reported metric: concentration at 5 min (ng/mL)
Quick note: give the figure in ng/mL, leave out the unit.

Kindly note the recorded concentration at 5 min for Cl.Cn1ncc2c1Nc1ccccc1NC2 [SOC-1] , which is 11900

---

# Assay name: 24-hour pharmacokinetic study, intravenous route
# Type: in vivo, male Sprague Dawley rats
# Experimental setup: male, Sprague Dawley, rat, plasma, iv, 20 mg/kg, 20 mg/kg IV, individual rats
Reported metric: half-life (min)
Write it as a number; the unit min goes unstated.

Per the records, this compound ( "Cl.Cn1ncc2c1Nc1ccccc1NC2" ) has half-life equal to 31.3

---

# Assay name: In vitro plasma stability assay
# Format: in vitro ADME
# Experimental setup: human, incubated at body temperature
Reported metric: half-life at 500 nM

half-life at 500 nM measured on "Cl.Cn1ncc2c1Nc1ccccc1NC2" = > 6 h

---

# Assay name: 24-hour pharmacokinetic study, intravenous route
# Format: in vivo, male Sprague Dawley rats
# Experimental setup: male, Sprague Dawley, rat, plasma, intravenous, 20 mg/kg, 20 mg/kg IV, 2 hours post-dose, individual rats #1-#3; read-out: Plasma SOC-1
Reported metric: concentration at 2 h (ng/mL)
Field: numeric (ng/mL). Do not append units.

Reported concentration at 2 h ( "Cl.Cn1ncc2c1Nc1ccccc1NC2" ) = 2310

---

Entries and their melting point

For orientation, consider the following solved cases.
Record "Cc1cccc2c1Nc1c(cnn1C)CN2" , field melting point: 137 to 139 °C

Value of melting point reported for the molecule "Cc1ccc2c(c1)NCc1cnn(C)c1N2" is 172 to 173 °C

Entry "Cn1ncc2c1Nc1ccc(F)cc1NC2" , melting point reported as 181 to 183 °C

Consider now this further molecule.
// field: melting point; key: "COc1ccc2c(c1)NCc1cnn(C)c1N2" ; value = 126 to 128 °C

---

# Assay name: 24-hour pharmacokinetic study, intravenous route
# Assay type: in vivo, male Sprague Dawley rats
# Experimental setup: male, Sprague Dawley, rat, in vivo; 20 mg/kg IV, Mean, N 3
Reported metric: half-life (min)
Field: numeric (min). Do not append units.

Item: "Cl.Cn1ncc2c1Nc1ccccc1NC2" | half-life: 33

---

# Assay name: 24-hour pharmacokinetic study, intravenous route
# Format: in vivo, male Sprague Dawley rats
# Experimental setup: male, Sprague Dawley, rat, plasma, iv, 20 mg/kg, 20 mg/kg IV, individual rats
Reported metric: AUC(0-inf) (ng·h/mL)
Entry rule: numbers only, all in ng·h/mL.

Input "Cl.Cn1ncc2c1Nc1ccccc1NC2" . Output AUC(0-inf): 15500

---

# Assay name: Pharmacokinetics after IP and PO administration
# Format: in vivo, Hooded Wistar rats
# Experimental setup: Hooded Wistar, rat, plasma, po, 5 mg/kg
Reported metric: AUC(0-t)

// field: AUC(0-t); key: "Cl.Cn1ncc2c1Nc1ccccc1NC2" ; value = 4060 ng·h/mL

---

# Assay name: 24-hour pharmacokinetic study, intravenous route
# Format: in vivo, male Sprague Dawley rats
# Experimental setup: male, Sprague Dawley, rat, plasma, iv, 20 mg/kg, 20 mg/kg IV, individual rats
Reported metric: clearance (mL/min/kg)
Give the number; mL/min/kg is assumed, so skip it.

Record "Cl.Cn1ncc2c1Nc1ccccc1NC2" , field clearance: 18.5

---

# Assay name: Pharmacokinetics after IP and PO administration
# Type: in vivo, Hooded Wistar rats
# Experimental setup: Hooded Wistar, rat, plasma, po, 5 mg/kg
Reported metric: AUC(0-inf) (ng·h/mL)
Report as a plain number; the unit ng·h/mL is understood.

Field AUC(0-inf) (entry Cl.Cn1ncc2c1Nc1ccccc1NC2 [SOC-1] ) reads 8490

---

# Assay name: 24-hour pharmacokinetic study, intravenous route
# Assay type: in vivo, male Sprague Dawley rats
# Experimental setup: male, Sprague Dawley, rat, plasma, iv, 20 mg/kg, 20 mg/kg IV, Mean, N 3
Reported metric: AUC(0-t) (ng·h/mL)
Answer in ng·h/mL, number only, no unit symbol.

# molecule "Cl.Cn1ncc2c1Nc1ccccc1NC2" ; its AUC(0-t) = 16800

---

# Assay name: 24-hour pharmacokinetic study, intravenous route
# Assay type: in vivo, male Sprague Dawley rats
# Experimental setup: male, Sprague Dawley, rat, plasma, iv, 20 mg/kg, 20 mg/kg IV, individual rats
Reported metric: AUC(0-t) (µg·h/mL)
Give the value in µg·h/mL but do not write µg·h/mL after it.

AUC(0-t) for Cl.Cn1ncc2c1Nc1ccccc1NC2 [SOC-1] is 15.4

---

# Test system: human OT receptor (Homo sapiens, UniProt P30559)
# Sequence (P30559 whole entry): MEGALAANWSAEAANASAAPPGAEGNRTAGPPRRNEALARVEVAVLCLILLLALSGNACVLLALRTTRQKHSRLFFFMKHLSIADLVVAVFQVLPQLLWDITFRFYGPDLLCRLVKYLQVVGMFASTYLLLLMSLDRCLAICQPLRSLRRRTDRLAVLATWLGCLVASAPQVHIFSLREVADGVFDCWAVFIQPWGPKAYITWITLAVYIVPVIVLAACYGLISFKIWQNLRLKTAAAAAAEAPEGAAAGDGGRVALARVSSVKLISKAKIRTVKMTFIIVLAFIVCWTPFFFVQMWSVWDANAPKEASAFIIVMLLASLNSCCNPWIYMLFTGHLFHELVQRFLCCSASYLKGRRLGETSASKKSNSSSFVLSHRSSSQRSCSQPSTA
Reported metric: IC50

Record "Cl.Cn1ncc2c1Nc1ccccc1NC2" . Reported IC50: > 10 µM

---

# Assay name: 24-hour pharmacokinetic study, intravenous route
# Assay type: in vivo, male Sprague Dawley rats
# Experimental setup: male, Sprague Dawley, rat, plasma, intravenous, 20 mg/kg, 20 mg/kg IV, 2 minutes post-dose, individual rats #1-#3; read-out: Plasma SOC-1
Reported metric: concentration at 2 min

Lookup result for "Cl.Cn1ncc2c1Nc1ccccc1NC2" ; measured concentration at 2 min: 17200 ng/mL

---

# Assay name: 24-hour pharmacokinetic study, intravenous route
# Format: in vivo, male Sprague Dawley rats
# Experimental setup: male, Sprague Dawley, rat, plasma, iv, 20 mg/kg, 20 mg/kg IV, individual rats; read-out: Vz
Reported metric: Vd

Lookup result for "Cl.Cn1ncc2c1Nc1ccccc1NC2" ; measured Vd: 0.831 L/kg

---

# Test system: human V1a receptor (Homo sapiens, UniProt P37288)
# Sequence (P37288 whole entry): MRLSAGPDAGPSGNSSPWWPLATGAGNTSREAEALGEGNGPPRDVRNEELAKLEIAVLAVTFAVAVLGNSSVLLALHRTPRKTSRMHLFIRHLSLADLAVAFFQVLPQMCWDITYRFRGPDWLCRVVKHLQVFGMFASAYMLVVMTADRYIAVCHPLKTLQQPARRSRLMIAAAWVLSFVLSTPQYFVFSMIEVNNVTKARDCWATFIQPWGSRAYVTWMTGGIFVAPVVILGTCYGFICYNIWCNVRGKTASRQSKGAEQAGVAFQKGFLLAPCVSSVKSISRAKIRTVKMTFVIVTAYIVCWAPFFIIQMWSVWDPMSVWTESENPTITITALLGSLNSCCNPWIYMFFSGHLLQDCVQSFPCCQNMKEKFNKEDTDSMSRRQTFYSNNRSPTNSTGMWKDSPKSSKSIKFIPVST
Reported metric: IC50

The recorded IC50 for entry "Cl.Cn1ncc2c1Nc1ccccc1NC2" equals > 10 µM

---

# Assay name: Pharmacokinetics after IP and PO administration
# Format: in vivo, Hooded Wistar rats
# Experimental setup: Hooded Wistar, rat, plasma, ip, 5 mg/kg
Reported metric: AUC(0-inf)
Quick note: number first, unit second.

AUC(0-inf) for Cl.Cn1ncc2c1Nc1ccccc1NC2 [SOC-1] is 5910 ng·h/mL
